measured target: human sGC α subunit and β subunit (Homo sapiens, UniProt Q02153)
Construct: expressed in transfected cells
Sequence (Q02153 1-619): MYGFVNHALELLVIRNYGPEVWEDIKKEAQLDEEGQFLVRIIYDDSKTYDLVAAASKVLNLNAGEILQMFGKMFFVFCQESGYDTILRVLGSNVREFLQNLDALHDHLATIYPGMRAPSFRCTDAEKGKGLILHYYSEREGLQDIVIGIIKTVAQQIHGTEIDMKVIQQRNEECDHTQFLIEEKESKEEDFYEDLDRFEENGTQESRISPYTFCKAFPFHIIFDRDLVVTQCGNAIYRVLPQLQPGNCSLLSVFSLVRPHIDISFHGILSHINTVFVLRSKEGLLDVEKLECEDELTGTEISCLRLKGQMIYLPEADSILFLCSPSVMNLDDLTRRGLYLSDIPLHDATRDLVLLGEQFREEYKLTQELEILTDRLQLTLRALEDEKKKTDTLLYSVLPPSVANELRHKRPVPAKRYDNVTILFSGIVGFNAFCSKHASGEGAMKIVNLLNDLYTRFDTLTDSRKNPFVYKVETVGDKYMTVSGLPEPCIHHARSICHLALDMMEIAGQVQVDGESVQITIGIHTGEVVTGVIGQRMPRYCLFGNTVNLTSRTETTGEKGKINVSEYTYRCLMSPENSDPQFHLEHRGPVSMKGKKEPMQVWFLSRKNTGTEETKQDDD
Sequence (Q02108 1-690 partner): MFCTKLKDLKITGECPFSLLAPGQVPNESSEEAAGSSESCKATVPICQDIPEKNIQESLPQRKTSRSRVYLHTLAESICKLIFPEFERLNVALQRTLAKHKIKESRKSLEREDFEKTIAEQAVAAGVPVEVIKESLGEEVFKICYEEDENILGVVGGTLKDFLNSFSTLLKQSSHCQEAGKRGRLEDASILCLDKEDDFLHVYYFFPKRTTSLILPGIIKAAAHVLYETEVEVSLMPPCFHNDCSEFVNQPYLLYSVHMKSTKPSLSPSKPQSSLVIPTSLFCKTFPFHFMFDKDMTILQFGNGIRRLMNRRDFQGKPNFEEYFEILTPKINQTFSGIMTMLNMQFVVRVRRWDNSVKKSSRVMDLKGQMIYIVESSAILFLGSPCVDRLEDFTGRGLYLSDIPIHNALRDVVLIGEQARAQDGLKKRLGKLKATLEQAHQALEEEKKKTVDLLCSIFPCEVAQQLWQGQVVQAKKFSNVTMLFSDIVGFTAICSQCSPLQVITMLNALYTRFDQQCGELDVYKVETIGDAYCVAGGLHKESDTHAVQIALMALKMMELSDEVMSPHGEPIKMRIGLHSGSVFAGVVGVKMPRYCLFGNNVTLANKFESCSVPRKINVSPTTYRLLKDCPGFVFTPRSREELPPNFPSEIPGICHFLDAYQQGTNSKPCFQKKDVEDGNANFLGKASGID
assay procedure: Maximum effect of sGC activating function (Ca2+ fluorescence in CHO-K1 cells expressing human sGC and mouse CNGA2)
Type: cell-based
reported conditions: increase ratio of sGC activity vs control solution at 10 μmol/L test compound, ODQ not contained, read-out: Emax (%) ODQ− (Heme-dependent)
Catalogue of Emax at 10 µM values
A number alone suffices; assume %.

Known Emax at 10 µM results, listed for orientation:
O=C(O)CCCCN(CCc1ccccc1OCc1ccc(CCc2ccccc2)cc1)C1CCCCc2cc(C(=O)O)ccc21 (stereo not drawn) : 102
O=C(O)CCCCN(CCc1ccccc1OCc1ccc(CCc2ccccc2)cc1)C1COCc2cc(C(=O)O)ccc21 (stereo not drawn) : 130
O=C(O)CCCCN(CCc1ccccc1OCc1ccc(CCc2ccccc2)cc1)C1COc2cc(C(=O)O)ccc21 (stereo not drawn) : 110
O=C(O)CCCCN(CCc1ccccc1OCc1ccc(/C=C/C2CCCCC2)cc1)C1CCCc2cc(C(=O)O)ccc21 (stereo not drawn) : 126
O=C(O)CCCCN(CCc1ccccc1OCc1ccc(CCc2ccccc2)cc1)Cc1ccc(C(=O)O)cc1 [Cinaciguat, reference compound] : 53

[Q] What value of Emax at 10 µM has been reported for the following compound? O=C(O)CCCCN(CCc1ccccc1OCc1cccc2c1CCCC2)C1CCCc2cc(C(=O)O)ccc21 (stereo not drawn)
[A] 141

[Q] What value of Emax at 10 µM has been reported for the following compound? O=C(O)CCCCN(CCc1ccccc1OCc1ccc(CCC2CCCCC2)cc1)C1CCCc2cc(C(=O)O)ccc21 (stereo not drawn)
[A] 135

[Q] What value of Emax at 10 µM has been reported for the following compound? O=C(O)CCCCN(CCc1ccccc1OCc1ccc(CCc2ccccc2)cc1)C1CCSc2cc(C(=O)O)ccc21 (stereo not drawn)
[A] 84.5

[Q] What value of Emax at 10 µM has been reported for the following compound? C#Cc1ccc(COc2ccccc2CCN(CCCCC(=O)O)C2CCCc3cc(C(=O)O)ccc32)cc1 (stereo not drawn)
[A] 88.7

[Q] What value of Emax at 10 µM has been reported for the following compound? O=C(O)CCCCN(CCc1ccccc1OCc1ccc(CCc2ccccc2)cc1)C1CCOc2cc(C(=O)O)ccc21 (stereo not drawn)
[A] 114

[Q] What value of Emax at 10 µM has been reported for the following compound? O=C(O)CCCCN(CCc1ccccc1OCc1ccccc1Cl)C1CCCc2cc(C(=O)O)ccc21 (stereo not drawn)
[A] 64.2

[Q] What value of Emax at 10 µM has been reported for the following compound? O=C(O)CCCCN(CCc1ccccc1OCc1ccc(C#CC2CCCCC2)cc1)C1CCCc2cc(C(=O)O)ccc21 (stereo not drawn)
[A] 108

[Q] What value of Emax at 10 µM has been reported for the following compound? O=C(O)CCCCN(CCc1ccccc1OCc1ccc2c(c1)CCC2)C1CCCc2cc(C(=O)O)ccc21 (stereo not drawn)
[A] 81.3

[Q] What value of Emax at 10 µM has been reported for the following compound? O=C(O)CCCCN(CCc1ccccc1OCc1ccc(CCc2ccccc2)cc1)C1CCCc2nc(C(=O)O)ccc21 (stereo not drawn)
[A] 126

[Q] What value of Emax at 10 µM has been reported for the following compound? O=C(O)CCCCN(CCc1ccccc1OC[C@H]1CC[C@@H](CCc2ccccc2)CC1)C1CCCc2cc(C(=O)O)ccc21 (stereo partly drawn)
[A] 113
